MEASUREMENT_TARGET: human GPR68 (Homo sapiens, UniProt Q15743)
Construct: encoding full-length human GPR68 (uniprot ID: Q15743); expressed in transfected cells; host or cells: HEK293T
Sequence (Q15743 whole entry): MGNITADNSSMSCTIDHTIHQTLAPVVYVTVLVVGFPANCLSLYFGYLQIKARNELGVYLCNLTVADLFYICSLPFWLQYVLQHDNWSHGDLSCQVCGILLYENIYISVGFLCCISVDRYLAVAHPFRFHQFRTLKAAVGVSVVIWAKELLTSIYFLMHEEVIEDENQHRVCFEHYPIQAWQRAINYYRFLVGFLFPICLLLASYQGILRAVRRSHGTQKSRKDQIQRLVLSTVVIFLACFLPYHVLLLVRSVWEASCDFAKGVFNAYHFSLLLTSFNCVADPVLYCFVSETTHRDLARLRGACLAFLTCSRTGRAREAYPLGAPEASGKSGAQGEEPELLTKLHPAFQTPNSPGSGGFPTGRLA
PROTOCOL_NOTES: GPR68 Biochemical Assay (Promega GloSensor cAMP assay, GPR68 antagonism)
Assay type: cell-based
STUDY_CONDITIONS: HEK293T cells transiently expressing hGPR68, antagonism of pH 5.5 stimulated cAMP, 15 min, read-out: hGPR68 IC50
READOUT_TYPE: IC50

Give IC50 for all compounds that follow.
1. NC(=O)c1c(COC2CC2)nn2c(C(=O)N[C@H]3C[C@@H](OC(F)(F)F)C3)ccnc12 [Compound 216]
2. NC(=O)c1c(CO)nn2c(C(=O)NC3Cc4ccccc4C3)ccnc12 [Compound 204]
3. COCc1nn2c(C(=O)NC3Cc4cc(F)cc(F)c4C3)ccnc2c1C(N)=O (stereo not drawn) [Compound 92]

1: < 50 nM; 2: 50 to 500 nM; 3: < 50 nM

----------
MEASUREMENT_TARGET: human GPR68 (Homo sapiens, UniProt Q15743)
Construct: encoding full-length human GPR68 (uniprot ID: Q15743); expressed in transfected cells; host or cells: HEK293T
PROTOCOL_NOTES: GPR68 Biochemical Assay (Promega GloSensor cAMP assay, GPR68 antagonism)
Format: cell-based
STUDY_CONDITIONS: HEK293T cells transiently expressing hGPR68, antagonism of pH 5.5 stimulated cAMP, 15 min, read-out: hGPR68 IC50
For each of the compounds below, state its IC50.

COMPOUND	IC50
COCc1nn2c(C(=O)N[C@H]3C[C@@H](OC(F)(F)F)C3)cc(C)nc2c1C(N)=O	50 to 500 nM
COCc1nn2c(C(=O)NCC3(N(C)C)CCCCC3)ccnc2c1C(N)=O	50000 to 100000 nM
NC(=O)c1c(C2CC2)nc2c(C(=O)N[C@H]3CCOc4cc(F)ccc43)ccnn12	< 50 nM
NC(=O)c1c(C2CC2)nn2c(C(=O)NC3Cc4ccccc43)ccnc12 (centres unmarked)	< 50 nM
COCc1nn2c(C(=O)NC3Cc4ccccc4C3)ccnc2c1C(N)=S	50 to 500 nM

Below are some compounds; for each one, tell me its IC50.
1. COCc1nn2c(C(=O)NC3CC(F)(F)c4ccccc43)ccnc2c1C(N)=O (single isomer, unassigned) [Compound 174]
2. COCc1nn2c(C(=O)NC3CCCCC3)ccnc2c1C(N)=O
3. NC(=O)c1c(C2CC2)nc2c(C(=O)N[C@H]3C[C@@H](OC(F)(F)F)C3)ccnn12
4. COCc1nn2c(C(=O)NC3Cc4nccn4C3)ccnc2c1C(N)=O (centres unmarked)
5. NC(=O)c1c(OCC2CC2)nn2c(C(=O)N[C@H]3C[C@@H](OC(F)(F)F)C3)ccnc12

["< 50 nM", "50 to 500 nM", "< 50 nM", "50 to 500 nM", "50 to 500 nM"]

Take each entry in turn and give its IC50.
1. NC(=O)c1c(C2CC2)nn2c(C(=O)NC3CCS(=O)(=O)c4ccccc43)ccnc12 (centres unmarked)
2. C[C@]1(F)C[C@H](NC(=O)c2ccnc3c(C(N)=O)cnn23)C1
3. COCc1nn2c(C(=O)N[C@@H]3Cc4ccccc4[C@@H]3O)ccnc2c1C(N)=O (relative stereo)
4. COCc1nn2c(C(=O)NC3CCc4nccn4C3)ccnc2c1C(N)=O (centres unmarked)
5. COCc1nc2c(C(=O)N[C@@H]3CCS(=O)(=O)c4ccccc43)ccnn2c1C(N)=O
6. NC(=O)c1c(C2CC2)nn2c(C(=O)N[C@H]3CCOc4cc(F)ccc43)ccnc12

< 50 nM
5000 to 50000 nM
< 50 nM
500 to 5000 nM
< 50 nM
< 50 nM

Determine from records and report IC50 for COCc1nn2c(C(=O)NCc3ccc(F)cc3)ccnc2c1C(N)=O < 50 nM
